Target: T1, B-cat-Halo (beta-catenin HaloTag fusion construct expressed in HEK293 cells) (UniProt P35222 1-781)
T1 sequence (looked up): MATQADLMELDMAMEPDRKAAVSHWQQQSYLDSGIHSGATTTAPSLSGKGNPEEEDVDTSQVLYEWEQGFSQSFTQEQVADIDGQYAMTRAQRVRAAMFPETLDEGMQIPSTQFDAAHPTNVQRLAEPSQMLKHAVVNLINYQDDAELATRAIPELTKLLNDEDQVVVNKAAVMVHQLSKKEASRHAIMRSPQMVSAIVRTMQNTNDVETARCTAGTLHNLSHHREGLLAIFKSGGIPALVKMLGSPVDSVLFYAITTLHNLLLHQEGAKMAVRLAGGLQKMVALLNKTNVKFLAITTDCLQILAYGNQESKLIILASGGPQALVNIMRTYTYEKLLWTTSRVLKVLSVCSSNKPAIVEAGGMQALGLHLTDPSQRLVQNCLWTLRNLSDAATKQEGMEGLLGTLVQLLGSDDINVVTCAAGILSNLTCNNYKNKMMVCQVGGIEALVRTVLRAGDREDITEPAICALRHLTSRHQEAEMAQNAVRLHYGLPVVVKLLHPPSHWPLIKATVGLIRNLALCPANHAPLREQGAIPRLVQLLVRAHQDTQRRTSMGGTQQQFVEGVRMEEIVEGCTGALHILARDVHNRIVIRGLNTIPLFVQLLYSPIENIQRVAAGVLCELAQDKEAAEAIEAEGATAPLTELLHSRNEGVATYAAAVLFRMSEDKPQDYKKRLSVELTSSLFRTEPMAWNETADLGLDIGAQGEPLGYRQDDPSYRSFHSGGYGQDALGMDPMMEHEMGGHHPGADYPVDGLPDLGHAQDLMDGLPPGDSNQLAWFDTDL
Experiment: cell-based or functional assay
Starred links: 1 amine or outer side, 2 acyl side, 3 side chain; linkers in the order of their positions; H or OH if unused. Positions of bridges follow the written chain, without caps; N, C: chain ends. Non-standard residues stand in square brackets, D forms with d. Primed or numbered codes have the meaning given here. PyrS2″ = (S)-3-amino-1-((pent-4-en-1-yloxy)carbonyl)pyrrolidine-3-carboxylic acid (stapling residue), C=CCCCOC(=O)N1CC[C@@](N[*:1])(C(=O)[*:2])C1; B5(3) = 2,2-bis(4-pentenyl)glycine (stitching residue), C=CCCCC(CCCC=C)(N[*:1])C(=O)[*:2]; Phe(2-Cl) = N[C@@H](Cc1ccccc1Cl)C(=O)O; 1Nal = N[C@@H](Cc1cccc2ccccc12)C(=O)O; 2Nal = N[C@@H](Cc1ccc2ccccc2c1)C(=O)O; Phe(2-F) = N[C@@H](Cc1ccccc1F)C(=O)O; Bta = N[C@@H](Cc1csc2ccccc12)C(=O)O; αAllylPro = C=CC[C@@]1(C(=O)O)CCCN1; tBuAla = CC(C)(C)C[C@H](N)C(=O)O; Cha = N[C@@H](CC1CCCCC1)C(=O)O; S8 = C=CCCCCCC[C@](C)(N)C(=O)O
Please use yes (1) for NanoBRET Abs IC50 under 10 µM and no (0) for everything else, ties included.

>  <binder>
Ac-[αAllylPro]D[Cha][B5(3)]DDAAFS[PyrS2″][Phe(2-F)][Bta]S-NH2 (staple 1-4, 4-11) [I-1102]

>  <answer_label>
no (0)

$$$$
>  <binder>
Ac-[αAllylPro]D[Cha][B5(3)]DDAAF[Cha][PyrS2″][Phe(2-Cl)][Bta]Q-NH2 (staple 1-4, 4-11) [I-1107]

>  <answer_label>
no (0)

$$$$
>  <binder>
Ac-[αAllylPro]D[tBuAla][B5(3)]DEAAFL[S8][Phe(2-Cl)][Bta]Q-NH2 (staple 1-4, 4-11) [I-1096]

>  <answer_label>
yes (1)

$$$$
>  <binder>
Ac-[αAllylPro]D[2Nal][B5(3)]DDAAFS[PyrS2″][Phe(2-Cl)][Bta]Q-NH2 (staple 1-4, 4-11) [I-1109]

>  <answer_label>
no (0)

$$$$
>  <binder>
Ac-[αAllylPro]D[1Nal][B5(3)]DDAAFS[PyrS2″][Phe(2-Cl)][Bta]Q-NH2 (staple 1-4, 4-11) [I-1108]

>  <answer_label>
no (0)

$$$$
>  <binder>
Ac-[αAllylPro]D[tBuAla][B5(3)]DDAAFS[PyrS2″]F[Bta]S-NH2 (staple 1-4, 4-11) [I-1099]

>  <answer_label>
yes (1)

$$$$
>  <binder>
Ac-[αAllylPro]D[2Nal][B5(3)]DDAAFL[PyrS2″][2C1F][Bta]Q-NH2 (staple 1-4, 4-11) [I-1111]

>  <answer_label>
no (0)

$$$$
>  <binder>
Ac-[αAllylPro]D[tBuAla][B5(3)]DDAA[Cha]S[PyrS2″]F[Bta]S-NH2 (staple 1-4, 4-11) [I-1105]

>  <answer_label>
no (0)

$$$$
>  <binder>
Ac-[αAllylPro]D[tBuAla][B5(3)]DDAAFL[S8][Phe(2-Cl)][Bta][dT]-NH2 (staple 1-4, 4-11) [I-1097]

>  <answer_label>
no (0)

$$$$
>  <binder>
Ac-[αAllylPro]D[tBuAla][B5(3)]DDAAFS[PyrS2″][Phe(2-F)][Bta]S-NH2 (staple 1-4, 4-11) [I-1101]

>  <answer_label>
no (0)

$$$$
